Cited source: paper PMC10821532

assay: GHB toxicokinetic study, i.v. bolus, plasma and urine up to 8 h, noncompartmental analysis; format: in vivo, Sprague Dawley rats; settings: male, Sprague Dawley, rat, plasma, iv, 1000 mg/kg, 1000 mg/kg GHB iv; intact male rats; read-out: CL - Total clearance
OUTCOME MEASURE: clearance (mL/min/kg)
Express your answer in mL/min/kg, writing the number without its unit.

Record O=C(O)CCCO [GHB, Γ-hydroxybutyric acid] . Reported clearance: 4.6

* * *

Assay: GHB toxicokinetic study, i.v. bolus, plasma and urine up to 8 h, noncompartmental analysis
Type: in vivo, Sprague Dawley rats
Details: female, Sprague Dawley, rat, plasma and urine, iv, 1000 mg/kg, 1000 mg/kg GHB iv; OVX testosterone rats; read-out: CLR - Renal clearance
Description: Male and female Sprague Dawley (SD) rats, ovariectomized (OVX) females, and castrated (CST) males were obtained from Charles River (Wilmington, MA, USA) at 8 weeks of age. […] Estrus cycle stages of female rats were monitored daily by vaginal lavage smear, as described in previously published literature. […] GHB in plasma and urine were quantified using a validated liquid chromatography/tandem mass spectrometry (LC/MS/MS) assay that was described previously. […]
OUTCOME MEASURE: CL renal (L/h/kg)
Report only the number, with the unit L/h/kg understood.

Measured CL renal of O=C(O)CCCO [GHB, Γ-hydroxybutyric acid] : 0.144

* * *

assay: Plasma testosterone level after 21 days of testosterone pellet treatment (LC-MS); type: in vivo, Sprague Dawley rats; details: female, Sprague Dawley, rat, sc, OVX rats, 7.5 mg 60-day release testosterone pellet s.c.
OUTCOME MEASURE: concentration at 21 days (ng/mL)
// note: answer is a bare numeric in ng/mL

Entry C[C@]12CC[C@H]3[C@@H](CCC4=CC(=O)CC[C@@]43C)[C@@H]1CC[C@@H]2O [Testosterone, testosterone] — recorded concentration at 21 days = 6.22

* * *

experiment: GHB toxicokinetic study, i.v. bolus, plasma and urine up to 8 h, noncompartmental analysis; format: in vivo, Sprague Dawley rats; conditions: male, Sprague Dawley, rat, plasma and urine, iv, 1000 mg/kg, 1000 mg/kg GHB iv; intact male rats; read-out: CLm – Metabolic clearance
OUTCOME MEASURE: clearance (mL/min/kg)
Just the number in mL/min/kg, nothing appended.

// recorded clearance for O=C(O)CCCO [GHB, Γ-hydroxybutyric acid] : 2.4

* * *

assay: GHB toxicokinetic study, i.v. bolus, plasma and urine up to 8 h, noncompartmental analysis; type: in vivo, Sprague Dawley rats; conditions: male, Sprague-Dawley, rat, plasma and urine, iv, 1500 mg/kg, 1500 mg/kg GHB + 1mg/kg AR-C 155858 iv; CST testosterone rats; read-out: CLR (renal clearance)
OUTCOME MEASURE: CL renal (mL/min/kg)
Your answer should be a plain number; it is taken to be in mL/min/kg.

compound O=C(O)CCCO [GHB, Γ-hydroxybutyric acid] , CL renal observed: 5.6

* * *

Assay: GHB toxicokinetic study, i.v. bolus, plasma and urine up to 8 h, noncompartmental analysis
Format: in vivo, Sprague Dawley rats
Settings: male, Sprague Dawley, rat, plasma and urine, iv, 1000 mg/kg, 1000 mg/kg GHB iv; intact male rats; read-out: CLR - Renal clearance
Source text: Male and female Sprague Dawley (SD) rats, ovariectomized (OVX) females, and castrated (CST) males were obtained from Charles River (Wilmington, MA, USA) at 8 weeks of age. […] Estrus cycle stages of female rats were monitored daily by vaginal lavage smear, as described in previously published literature. […] GHB in plasma and urine were quantified using a validated liquid chromatography/tandem mass spectrometry (LC/MS/MS) assay that was described previously. […]
OUTCOME MEASURE: CL renal (mL/min/kg)
Enter your answer as a number in mL/min/kg; do not include the unit.

Sample O=C(O)CCCO [GHB, Γ-hydroxybutyric acid] ; CL renal observed: 2.2

* * *

experiment: GHB toxicokinetic study, i.v. bolus, plasma and urine up to 8 h, noncompartmental analysis; assay type: in vivo, Sprague Dawley rats; details: female, Sprague-Dawley, rat, plasma and urine, iv, 1500 mg/kg, 1500 mg/kg GHB + 1mg/kg AR-C 155858 iv; intact female (estrus) rats; read-out: CLm (metabolic clearance)
OUTCOME MEASURE: clearance (mL/min/kg)
Form entry: value (mL/min/kg) — number only.

In plain terms, O=C(O)CCCO [GHB, Γ-hydroxybutyric acid] has a documented clearance of 2.2

* * *

test: GHB toxicokinetic study, i.v. bolus, plasma and urine up to 8 h, noncompartmental analysis; type: in vivo, Sprague Dawley rats; details: female, Sprague-Dawley, rat, plasma and urine, iv, 1500 mg/kg, 1500 mg/kg GHB + 1mg/kg AR-C 155858 iv; OVX testosterone placebo rats; read-out: CLm (metabolic clearance)
OUTCOME MEASURE: clearance (mL/min/kg)
Response body: numeric value in mL/min/kg, unit text excluded.

Per the record, O=C(O)CCCO [GHB, Γ-hydroxybutyric acid] has clearance of 2.7

* * *

experiment: GHB toxicokinetic study, i.v. bolus, plasma and urine up to 8 h, noncompartmental analysis; type: in vivo, Sprague Dawley rats; conditions: female, Sprague-Dawley, rat, plasma, iv, 1500 mg/kg, 1500 mg/kg GHB + 1mg/kg AR-C 155858 iv; intact female (estrus) rats; read-out: CL (total clearance)
OUTCOME MEASURE: clearance (mL/min/kg)
Entry rule: numbers only, all in mL/min/kg.

Kindly note the recorded clearance for O=C(O)CCCO [GHB, Γ-hydroxybutyric acid] , which is 8.5

* * *

assay: GHB toxicokinetic study, i.v. bolus, plasma and urine up to 8 h, noncompartmental analysis; assay type: in vivo, Sprague Dawley rats; conditions: female, Sprague Dawley, rat, plasma and urine, iv, 1500 mg/kg, 1500 mg/kg GHB iv; OVX testosterone rats; read-out: CLR (renal clearance)
OUTCOME MEASURE: CL renal (mL/min/kg)
Just the number please, in mL/min/kg, no unit attached.

CL renal for O=C(O)CCCO [GHB, Γ-hydroxybutyric acid] is 2.7

* * *

Test: GHB toxicokinetic study, i.v. bolus, plasma and urine up to 8 h, noncompartmental analysis
Format: in vivo, Sprague Dawley rats
Conditions: female, Sprague Dawley, rat, plasma and urine, iv, 1500 mg/kg, 1500 mg/kg GHB iv; intact female (estrus) rats; read-out: CLR (renal clearance)
Excerpt: Male and female Sprague Dawley (SD) rats, ovariectomized (OVX) females, and castrated (CST) males were obtained from Charles River (Wilmington, MA, USA) at 8 weeks of age. […] Estrus cycle stages of female rats were monitored daily by vaginal lavage smear, as described in previously published literature. […] GHB in plasma and urine were quantified using a validated liquid chromatography/tandem mass spectrometry (LC/MS/MS) assay that was described previously. […]
OUTCOME MEASURE: CL renal (mL/min/kg)
Give your result in mL/min/kg as a bare value.

Data point: O=C(O)CCCO [GHB, Γ-hydroxybutyric acid] ; CL renal = 3.7

* * *

test: Plasma testosterone level after 21 days of testosterone pellet treatment (LC-MS); type: in vivo, Sprague Dawley rats; conditions: male, Sprague Dawley, rat, sc, CST rats, 7.5 mg 60-day release testosterone pellet s.c.
OUTCOME MEASURE: concentration at 21 days
Enter the number, and then the unit.

Recorded result, "C[C@]12CC[C@H]3[C@@H](CCC4=CC(=O)CC[C@@]43C)[C@@H]1CC[C@@H]2O" , concentration at 21 days: 5.44 ng/mL

* * *

assay: GHB toxicokinetic study, i.v. bolus, plasma and urine up to 8 h, noncompartmental analysis; format: in vivo, Sprague Dawley rats; settings: male, Sprague Dawley, rat, plasma, iv, 1000 mg/kg, 1000 mg/kg GHB iv; CST testosterone rats; read-out: CL - Total clearance
OUTCOME MEASURE: clearance

clearance measured on O=C(O)CCCO [GHB, Γ-hydroxybutyric acid] = 5.3 mL/min/kg

* * *

test: GHB toxicokinetic study, i.v. bolus, plasma and urine up to 8 h, noncompartmental analysis; assay type: in vivo, Sprague Dawley rats; conditions: male, Sprague-Dawley, rat, plasma and urine, iv, 1500 mg/kg, 1500 mg/kg GHB + 1mg/kg AR-C 155858 iv; CST testosterone rats; read-out: CLm (metabolic clearance)
OUTCOME MEASURE: clearance
Please report the result as a number followed by the unit.

Measured clearance, O=C(O)CCCO [GHB, Γ-hydroxybutyric acid] : 1.9 mL/min/kg

* * *

assay: GHB toxicokinetic study, i.v. bolus, plasma and urine up to 8 h, noncompartmental analysis; format: in vivo, Sprague Dawley rats; conditions: male, Sprague Dawley, rat, plasma, iv, 1000 mg/kg, 1000 mg/kg GHB iv; CST testosterone placebo rats; read-out: CL - Total clearance
OUTCOME MEASURE: clearance
Number first, unit second: that is the form wanted.

compound O=C(O)CCCO [GHB, Γ-hydroxybutyric acid] , clearance observed: 4.6 mL/min/kg

* * *

test: GHB toxicokinetic study, i.v. bolus, plasma and urine up to 8 h, noncompartmental analysis; assay type: in vivo, Sprague Dawley rats; details: male, Sprague-Dawley, rat, plasma and urine, iv, 1500 mg/kg, 1500 mg/kg GHB + 1mg/kg AR-C 155858 iv; intact male rats; read-out: CLR (renal clearance)
OUTCOME MEASURE: CL renal (mL/min/kg)
Numeric answer only, unit mL/min/kg assumed.

The compound listed as O=C(O)CCCO [GHB, Γ-hydroxybutyric acid] shows CL renal equal to 6.1
